target_desc: Voltage-gated inwardly rectifying potassium channel KCNH2 (Homo sapiens, UniProt Q12809)
Sequence (Q12809 whole entry): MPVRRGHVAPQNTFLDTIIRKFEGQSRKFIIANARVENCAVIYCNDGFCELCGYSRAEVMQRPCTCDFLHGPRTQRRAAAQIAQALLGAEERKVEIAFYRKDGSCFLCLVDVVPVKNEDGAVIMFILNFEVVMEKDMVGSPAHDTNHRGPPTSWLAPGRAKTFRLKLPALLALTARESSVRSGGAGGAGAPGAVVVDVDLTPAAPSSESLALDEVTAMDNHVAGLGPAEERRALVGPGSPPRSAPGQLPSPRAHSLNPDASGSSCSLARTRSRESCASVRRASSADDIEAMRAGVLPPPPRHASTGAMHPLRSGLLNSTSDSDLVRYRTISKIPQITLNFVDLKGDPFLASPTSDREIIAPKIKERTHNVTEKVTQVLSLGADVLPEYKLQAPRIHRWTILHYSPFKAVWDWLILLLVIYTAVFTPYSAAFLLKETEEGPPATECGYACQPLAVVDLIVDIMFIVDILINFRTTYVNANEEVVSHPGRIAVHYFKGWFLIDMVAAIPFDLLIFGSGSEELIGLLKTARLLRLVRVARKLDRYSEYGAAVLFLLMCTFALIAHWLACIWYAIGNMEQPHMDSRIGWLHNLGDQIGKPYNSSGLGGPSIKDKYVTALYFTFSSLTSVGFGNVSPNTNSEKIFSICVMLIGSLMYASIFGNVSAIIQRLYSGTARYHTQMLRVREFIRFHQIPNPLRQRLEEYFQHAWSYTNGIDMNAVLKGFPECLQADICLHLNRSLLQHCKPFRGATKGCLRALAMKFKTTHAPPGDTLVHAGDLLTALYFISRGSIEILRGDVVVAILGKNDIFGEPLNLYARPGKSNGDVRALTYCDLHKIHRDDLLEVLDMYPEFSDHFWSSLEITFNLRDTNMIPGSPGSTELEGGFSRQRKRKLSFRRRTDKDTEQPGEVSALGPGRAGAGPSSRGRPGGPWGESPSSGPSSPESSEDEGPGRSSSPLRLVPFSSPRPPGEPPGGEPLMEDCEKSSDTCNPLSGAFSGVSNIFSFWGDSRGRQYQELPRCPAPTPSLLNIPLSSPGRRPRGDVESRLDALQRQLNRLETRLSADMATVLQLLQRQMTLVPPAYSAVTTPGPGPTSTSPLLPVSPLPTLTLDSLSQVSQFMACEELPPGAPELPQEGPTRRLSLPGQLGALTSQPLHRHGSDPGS
test_protocol: Inhibition of hERG transfected in CHO cells at -80 mV holding potential by Whole-cell patch clamp assay
assay_readout: IC50

The recorded IC50 for entry CC(C)OC(=O)[C@@H](Cc1ncccn1)OC(=O)Nc1c2c(cc3c1CCC3)CCC2 equals > 30 µM

* * *

target_desc: Cytochrome P450 3A4 (Homo sapiens)
Sequence (P08684 whole entry): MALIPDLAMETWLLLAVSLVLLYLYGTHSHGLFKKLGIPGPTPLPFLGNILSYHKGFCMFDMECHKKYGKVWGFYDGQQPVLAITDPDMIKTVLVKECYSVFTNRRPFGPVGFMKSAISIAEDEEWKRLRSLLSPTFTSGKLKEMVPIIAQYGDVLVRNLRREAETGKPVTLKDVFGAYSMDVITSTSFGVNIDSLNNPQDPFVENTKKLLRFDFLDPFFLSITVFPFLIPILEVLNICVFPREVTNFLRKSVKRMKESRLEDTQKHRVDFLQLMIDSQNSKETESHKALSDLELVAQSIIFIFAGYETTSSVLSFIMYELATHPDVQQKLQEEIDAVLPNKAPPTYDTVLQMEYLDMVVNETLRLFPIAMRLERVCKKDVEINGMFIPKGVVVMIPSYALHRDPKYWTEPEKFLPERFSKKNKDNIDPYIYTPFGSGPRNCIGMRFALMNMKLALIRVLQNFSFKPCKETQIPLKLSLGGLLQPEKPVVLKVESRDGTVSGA
test_protocol: Reversible inhibition of CYP3A4 in human liver microsomes using midazolam as substrate in presence of NADPH by LC-MS/MS analysis
Assay type: ADME, Microsome
pIC50: −log10 of the molar value.
assay_readout: pIC50

Case CC(C)OC(=O)[C@@H](Cc1ncccn1)OC(=O)Nc1c2c(cc3c1CCC3)CCC2 [NT-0796] , Cytochrome P450 3A4 (Homo sapiens), pIC50 recorded as < 4.52

* * *

test_protocol: Ratio of drug concentration in C57BL/6J mouse brain to blood at 3 mg/kg, iv measured after 5 mins by LC-MS/MS analysis
Type: ADME, organism-based
experimental_context: read-out: BBR
For each entry below, report its Kp at 5 min value.
Please give only the number in your answer, with no unit.

The recorded Kp at 5 min for entry CC(C)OC(=O)[C@@H](Cc1ncccn1)OC(=O)Nc1c2c(cc3c1CCC3)CCC2 equals 0.79

The recorded Kp at 5 min for entry O=C(Nc1c2c(cc3c1CCC3)CCC2)O[C@H](Cc1ncccn1)C(=O)O equals 0.07

* * *

target_desc: NACHT, LRR and PYD domains-containing protein 3 (Homo sapiens)
Sequence (Q96P20 whole entry, the tested form may be a part): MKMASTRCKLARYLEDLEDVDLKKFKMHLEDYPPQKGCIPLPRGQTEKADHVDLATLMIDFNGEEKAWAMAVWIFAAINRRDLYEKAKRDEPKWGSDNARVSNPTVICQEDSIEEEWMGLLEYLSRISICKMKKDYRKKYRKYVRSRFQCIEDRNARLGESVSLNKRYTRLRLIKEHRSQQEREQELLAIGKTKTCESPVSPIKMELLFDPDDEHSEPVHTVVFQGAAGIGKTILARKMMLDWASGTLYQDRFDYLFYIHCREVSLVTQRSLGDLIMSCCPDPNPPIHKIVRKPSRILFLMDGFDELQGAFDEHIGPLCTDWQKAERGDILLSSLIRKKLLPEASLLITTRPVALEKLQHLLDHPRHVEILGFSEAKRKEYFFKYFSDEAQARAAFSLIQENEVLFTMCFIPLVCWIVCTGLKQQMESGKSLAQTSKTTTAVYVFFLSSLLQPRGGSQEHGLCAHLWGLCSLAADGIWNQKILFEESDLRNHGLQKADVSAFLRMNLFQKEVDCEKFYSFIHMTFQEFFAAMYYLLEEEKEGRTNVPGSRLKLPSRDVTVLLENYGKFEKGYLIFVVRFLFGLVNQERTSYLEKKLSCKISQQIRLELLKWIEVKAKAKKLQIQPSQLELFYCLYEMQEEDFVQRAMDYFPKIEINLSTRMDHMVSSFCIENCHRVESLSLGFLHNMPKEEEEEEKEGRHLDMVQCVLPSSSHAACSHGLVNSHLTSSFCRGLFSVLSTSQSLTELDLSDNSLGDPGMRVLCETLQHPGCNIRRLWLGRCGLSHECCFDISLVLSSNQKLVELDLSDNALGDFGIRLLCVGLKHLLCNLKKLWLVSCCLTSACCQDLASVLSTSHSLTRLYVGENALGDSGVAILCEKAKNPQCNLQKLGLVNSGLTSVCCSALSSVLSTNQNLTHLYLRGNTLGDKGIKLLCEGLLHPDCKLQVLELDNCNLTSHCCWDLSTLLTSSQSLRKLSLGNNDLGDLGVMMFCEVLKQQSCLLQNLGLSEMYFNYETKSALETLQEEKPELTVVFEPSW
test_protocol: Inhibition of NLRP3 inflammasome activation in LPS-activated human PBMC cells assessed as inhibition of ATP/nigericin induced IL-1beta secretion preincubated with LPS for 3 hrs followed by compound addition for 30 mins and further stimulated with ATP for 1 hr by ELISA
Assay type: cell-based
Response field label takes 1 when IC50 is strictly below 2 µM and -1 in all other cases.

Is 2 µM strictly greater than the molecule's reported IC50? molecule: CCOC(=O)COC(=O)Nc1c(CC)cccc1CC
1

Is 2 µM strictly greater than the molecule's reported IC50? molecule: COC(=O)CN(C)C(=O)Nc1c2c(cc3c1CCC3)CCC2
-1

Is 2 µM strictly greater than the molecule's reported IC50? molecule: CCOC(=O)COC(=O)Nc1c(C)cccc1C
1

Is 2 µM strictly greater than the molecule's reported IC50? molecule: CCOC(=O)COC(=O)Nc1ccccc1C#N
-1

Is 2 µM strictly greater than the molecule's reported IC50? molecule: CCOC(=O)COC(=O)Nc1c(Cl)cccc1Cl
1

Is 2 µM strictly greater than the molecule's reported IC50? molecule: CCOC(=O)COC(=O)Nc1c(F)cccc1F
1

Is 2 µM strictly greater than the molecule's reported IC50? molecule: CCOC(=O)COC(=O)Nc1c(C(C)C)cccc1C(C)C
-1

* * *

For each entry below, report its IC50 value.
target_desc: Cytochrome P450 2C19 (Homo sapiens, UniProt P33261)
Sequence (P33261 whole entry): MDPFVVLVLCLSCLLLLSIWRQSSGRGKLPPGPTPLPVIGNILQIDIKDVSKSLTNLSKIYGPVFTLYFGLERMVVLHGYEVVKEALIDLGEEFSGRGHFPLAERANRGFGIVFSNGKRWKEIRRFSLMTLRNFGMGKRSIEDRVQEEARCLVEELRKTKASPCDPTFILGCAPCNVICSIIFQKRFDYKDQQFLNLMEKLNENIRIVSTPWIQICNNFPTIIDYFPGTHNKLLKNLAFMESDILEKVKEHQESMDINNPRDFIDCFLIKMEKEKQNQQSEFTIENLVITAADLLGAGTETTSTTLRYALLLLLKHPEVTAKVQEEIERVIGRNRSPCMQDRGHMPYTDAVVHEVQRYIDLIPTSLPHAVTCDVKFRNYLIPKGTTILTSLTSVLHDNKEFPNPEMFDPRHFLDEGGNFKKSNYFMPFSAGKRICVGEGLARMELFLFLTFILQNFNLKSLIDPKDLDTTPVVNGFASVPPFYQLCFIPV
test_protocol: Reversible inhibition of CYP2C19 in human liver microsomes using S-mephenytoin as substrate incubated for 20 mins in presence of NADPH by LC-MS/MS analysis
Type: ADME, Microsome

The recorded IC50 for entry O=C(Nc1c2c(cc3c1CCC3)CCC2)O[C@H](Cc1ncccn1)C(=O)O equals > 30 µM

The recorded IC50 for entry CC(C)OC(=O)[C@@H](Cc1ncccn1)OC(=O)Nc1c2c(cc3c1CCC3)CCC2 equals > 30 µM
